System: Aβ42 production by human neuroblastoma SH-SY5Y cells
test_name: Aβ42 production by SH-SY5Y cells, sandwich ELISA of conditioned medium
measurement_context: read-out: IC50 of niacin's inhibitory effect on Aβ42 production; niacin alone; SH-SY5Y cells, overnight incubation
pIC50: −log10 of the molar value.
measured_attribute: pIC50

Query: Quick check: pIC50 on Aβ42 production by human neuroblastoma SH-SY5Y cells, item `O=C(O)c1cccnc1` ?
Response: ~4.99

* * *

Tested on: Aβ42 production by human neuroblastoma SH-SY5Y cells
test_name: Aβ42 production by SH-SY5Y cells, sandwich ELISA of conditioned medium
measurement_context: Homo sapiens, SH-SY5Y, read-out: IC50 of niacin in the presence of meclofenamic acid, in the presence of 5 μM of meclofenamic acid
measured_attribute: IC50 (µM)
Write the number in µM without appending the unit.

Query: Reported IC50 for `O=C(O)c1cccnc1` : what is it?
Response: 7
